- targetDesc: T1, human TNFR2 (Novoprotein, Cat #C830) (human, UniProt P20333 23-257, limits assumed)
- T1 construct: construct not described; also called human TNFR2 protein
- T1 sequence (looked up): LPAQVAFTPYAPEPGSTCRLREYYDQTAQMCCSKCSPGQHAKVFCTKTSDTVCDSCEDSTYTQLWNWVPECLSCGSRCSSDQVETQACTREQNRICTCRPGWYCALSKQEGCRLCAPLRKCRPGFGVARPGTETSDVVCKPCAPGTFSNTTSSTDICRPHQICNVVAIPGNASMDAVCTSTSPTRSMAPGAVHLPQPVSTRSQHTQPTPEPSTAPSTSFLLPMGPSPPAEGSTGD
- protocolDescription: competition ELISA, human TNFR2 coated, competitor human TNFα-Biotin
# IC50 per record follows
readoutType: IC50 (µg/mL)

| binder | valueUnits | assayResult |
| --- | --- | --- |
| 224-Hu5 (antibody, V domains shown, Humanized form of #224; also called VH9 + VL9) VH: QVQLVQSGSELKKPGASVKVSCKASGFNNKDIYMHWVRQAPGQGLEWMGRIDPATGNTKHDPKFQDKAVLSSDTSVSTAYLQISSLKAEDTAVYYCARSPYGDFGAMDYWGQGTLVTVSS VL: DIQMTQSPSSLSASVGDRVTITCTASSSVSSNYLHWYQQKPGKAPKLLIYSTSNLPSGVPSRFSGSGSGTDYSLTISSLQPEDFATYYCHQYHRSPWTFGQGTKVEIK | µg/mL | 0.528 |
| 001-Hu3 (antibody, V domains shown, Humanized form of #001; also called VH1 + VL3) VH: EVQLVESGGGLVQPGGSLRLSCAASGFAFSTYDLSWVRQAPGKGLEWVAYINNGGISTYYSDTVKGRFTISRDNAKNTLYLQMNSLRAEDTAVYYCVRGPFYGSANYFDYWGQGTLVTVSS VL: DIQMTQSPSSLSASVGDRVTITCRTSESIYSNLPWYQQKPGKAPKLLIYDATKLAEGVPSRFSGSGSGTDYTLTISSLQPEDFATYYCQHFWVTPWTFGQGTKVEIK | µg/mL | 0.597 |
| 219-Hu3 (antibody, V domains shown, also called VH5 + VL5) VH: QVQLVQSGAEVKKPGSSVKVSCKASGYSFTNYWMNWVRQAPGQGLEWMGMIHPSDTETRLNQNFKDRVTITADKSTSTAYMELSSLRSEDTAVYYCARGEGLGAARSVSMDYWGQGTLVTVSS VL: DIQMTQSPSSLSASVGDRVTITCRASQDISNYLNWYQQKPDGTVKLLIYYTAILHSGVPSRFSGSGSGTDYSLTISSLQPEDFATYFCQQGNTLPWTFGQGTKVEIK | µg/mL | 0.545 |
